target: Palmitoleoyl-protein carboxylesterase NOTUM (Homo sapiens, UniProt Q6P988, C330S); assay: Inhibition of human Notum (S81 to T451 residues) Cys330Ser mutant expressed in HEK293S GnTI cells using OPTS as substrate incubated for 40 mins by fluorescence based assay
Sequence (Q6P988 20-496 C330S limits assumed): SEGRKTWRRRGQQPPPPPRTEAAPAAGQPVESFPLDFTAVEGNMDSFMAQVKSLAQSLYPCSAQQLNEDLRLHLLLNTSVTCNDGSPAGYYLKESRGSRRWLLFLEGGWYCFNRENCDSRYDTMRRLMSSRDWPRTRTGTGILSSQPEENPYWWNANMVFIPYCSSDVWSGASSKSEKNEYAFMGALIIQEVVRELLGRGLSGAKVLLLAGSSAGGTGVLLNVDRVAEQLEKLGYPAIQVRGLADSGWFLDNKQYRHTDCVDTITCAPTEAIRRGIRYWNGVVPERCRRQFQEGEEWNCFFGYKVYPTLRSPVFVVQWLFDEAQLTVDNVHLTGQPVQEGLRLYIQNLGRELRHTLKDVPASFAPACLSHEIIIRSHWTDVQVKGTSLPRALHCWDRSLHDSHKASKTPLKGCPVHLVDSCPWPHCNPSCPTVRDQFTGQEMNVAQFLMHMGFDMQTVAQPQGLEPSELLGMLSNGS
QUANTITY_MEASURED: IC50 (nM)

Reference set (3 entries):
{"COMPOUND": "Cc1cc(C(=O)O)c(C)n1-c1ccc(C(F)(F)F)c(Cl)c1", "READOUT_UNIT": "nM", "IC50": 1500}
{"COMPOUND": "O=c1[nH]nc(C2CCN(c3ccc(Cl)c(C(F)(F)F)c3)C2)o1 (stereo not drawn)", "READOUT_UNIT": "nM", "IC50": 4200}
{"COMPOUND": "CN(C)C(=O)C1CCN(c2ccc(Cl)c(C(F)(F)F)c2)C1 (stereo not drawn)", "READOUT_UNIT": "nM", "IC50": 1200}

(a) Cc1c[nH]cc1C(=O)O
(b) Cc1cc(C(=O)O)c(C)n1-c1cccc(Cl)c1Cl
Request: When their IC50 values are compared, which is larger, a or b ? In your reply, give the label of the chosen option.
Result: a

(A) Cc1cc(C(=O)O)c[nH]1
(B) Cc1cc(C(=O)O)c(C)n1-c1ccc(Cl)c(Cl)c1
Request: When their IC50 values are compared, which is larger, A or B ? In your reply, give the label of the chosen option.
Result: A
(A: 100000 nM, B: 270 nM)

###

target: Palmitoleoyl-protein carboxylesterase NOTUM (Homo sapiens, UniProt Q6P988, C330S); experiment: Inhibition of human Notum (S81 to T451 residues) Cys330Ser mutant expressed in HEK293S GnTI cells using OPTS as substrate incubated for 40 mins by fluorescence based assay
QUANTITY_MEASURED: IC50 (µM)

Reference set (4 entries):
{"COMPOUND": "O=C(C1CCN(c2ccc(Cl)c(C(F)(F)F)c2)C1)N1CC2COCC2C1 (configuration not stated)", "IC50 / µM": 3.1}
{"COMPOUND": "CC(C)c1cccc(N2CCC(C(=O)O)C2)c1 (racemic)", "IC50 / µM": 57}
{"COMPOUND": "Cc1cc(C(=O)O)c(C)n1-c1c(Cl)cccc1Cl", "IC50 / µM": 2.3}
{"COMPOUND": "Cc1cc(C(=O)O)c(C)n1-c1cccc(C#N)c1", "IC50 / µM": 3.1}

(a) O=C(O)C1CCN(c2cccc(C(F)(F)F)c2)C1 (racemic)
(b) Cc1cc(C(=O)O)c(C)n1-c1cccc(Cl)c1C#N
Request: When their IC50 values are compared, which is larger, a or b ? In your reply, give the label of the chosen option.
Result: a

(A) COc1c(Cl)cccc1-n1c(C)cc(C(=O)O)c1C
(B) O=C(O)C1CCN(c2ccc(F)cc2)C1 (racemic)
Request: When their IC50 values are compared, which is larger, A or B ? In your reply, give the label of the chosen option.
Result: B

###

biological target: Palmitoleoyl-protein carboxylesterase NOTUM (Homo sapiens, UniProt Q6P988, C330S); assay: Inhibition of human Notum (S81 to T451 residues) Cys330Ser mutant expressed in HEK293S GnTI cells using OPTS as substrate incubated for 40 mins by fluorescence based assay
QUANTITY_MEASURED: IC50 (nM)

Reference set (5 entries):
{"MOLECULE": "Cc1cc(C(=O)O)c(C)n1CC1CC1", "SYSTEM_NAME": "Palmitoleoyl-protein carboxylesterase NOTUM (Homo sapiens, UniProt Q6P988, C330S)", "READOUT_UNIT": "nM", "IC50": 12700}
{"MOLECULE": "O=C(O)C1CCN(c2cccc(C(F)(F)F)c2F)C1 (stereo not drawn)", "SYSTEM_NAME": "Palmitoleoyl-protein carboxylesterase NOTUM (Homo sapiens, UniProt Q6P988, C330S)", "READOUT_UNIT": "nM", "IC50": 6800}
{"MOLECULE": "Cc1cc(C(=O)O)c(C)n1-c1cc(Cl)ccc1Cl", "SYSTEM_NAME": "Palmitoleoyl-protein carboxylesterase NOTUM (Homo sapiens, UniProt Q6P988, C330S)", "READOUT_UNIT": "nM", "IC50": 1700}
{"MOLECULE": "Cc1cc(C(=O)O)c(C)n1-c1cccc(Cl)c1F", "SYSTEM_NAME": "Palmitoleoyl-protein carboxylesterase NOTUM (Homo sapiens, UniProt Q6P988, C330S)", "READOUT_UNIT": "nM", "IC50": 380}
{"MOLECULE": "Cc1cccc(N2CCC(C(=O)O)C2)c1 (racemic)", "SYSTEM_NAME": "Palmitoleoyl-protein carboxylesterase NOTUM (Homo sapiens, UniProt Q6P988, C330S)", "READOUT_UNIT": "nM", "IC50": 49000}

(a) O=C(O)C1CCN(c2ccccc2Cl)C1 (stereo not drawn)
(b) Cc1cc(C(=O)O)c(C)n1-c1ccccc1
Request: Between item a and item b , which reported IC50 is smaller? In your reply, give the label of the chosen option.
Result: b
(b: 1700 nM, a: 19000 nM)
